cell viability: recorded values
- Test system: Vero E6
- Test Description: cell viability relative to DMSO; higher = less toxic
- Condition: 72 h; 1 nM
Report the value in % with no unit label.

Example cases with answers are listed next.
| Compound | cell viability (%) |
| --- | --- |
| COc1cc2c(cc1OC)CN(C(=O)[C@@H](NCc1ccncc1)C(C)(C)C)CC2 [TCS-OX2-29] | 100 |
| COc1ccc(-c2oc3cc(OC)ccc3c2C(=O)c2ccc(C#N)cc2)cc1 | 104 |
| O=C(O)c1cc2occc2[nH]1 | 107 |
| COCCN1CCC(C(=O)NO)(S(=O)(=O)c2ccc(Oc3ccc(OC(F)(F)F)cc3)cc2)CC1 [SD-2590] | 97.6 |

Exam item: Consider the compound shown here: O=C1C(=O)N(Cc2ccc(Cl)c(Cl)c2)c2ccccc21 [apoptosis-activator-II] What is its recorded cell viability?
Marked response: 106
